Every entry's value here was drawn from the Kinase Knowledgebase extract (Sharma et al. 2016).

target.desc: UniProt P24941
assay.text: Enzyme Assay
Listed below: IC50 values for each entry.

{"compound": "CN(C)C1CCN(c2ccc(Nc3nc(N)c(C(=O)c4ccc([N+](=O)[O-])cc4)s3)cc2)CC1", "IC50 (µM)": 10}
{"compound": "CCNC1CCN(c2ccc(Nc3nc(N)c(C(=O)c4cccc(F)c4)s3)cc2)CC1", "IC50 (µM)": 1.01}
{"compound": "NC(=O)c1cc(C(=O)c2sc(Nc3ccc(N4CCC(N5CCCC5)CC4)cc3)nc2N)ccc1O", "IC50 (µM)": 10}
{"compound": "Nc1nc(Nc2ccc(N3CCC(N4CCCC(O)C4)CC3)cc2)sc1C(=O)c1ccc2c(c1)OCCO2 (stereo not given)", "IC50 (µM)": 1.45}
{"compound": "Nc1nc(Nc2ccc(N3CCC(N4CCCC(O)C4)CC3)cc2)sc1C(=O)c1ccc(Cl)cc1 (stereo not given)", "IC50 (µM)": 10}

---

Listed below: pIC50 values for each entry.
target.desc: CDK2 (human) (UniProt P24941)
assay.text: Enzyme Assay
pIC50: −log10 of the molar value.

{"compound": "CN(C)C1CCN(c2ccc(Nc3nc(N)c(C(=O)c4ccc([N+](=O)[O-])cc4)s3)cc2)CC1", "pIC50": 5.00}
{"compound": "CCNC1CCN(c2ccc(Nc3nc(N)c(C(=O)c4cccc(F)c4)s3)cc2)CC1", "pIC50": 6.00}
{"compound": "NC(=O)c1cc(C(=O)c2sc(Nc3ccc(N4CCC(N5CCCC5)CC4)cc3)nc2N)ccc1O", "pIC50": 5.00}
{"compound": "Nc1nc(Nc2ccc(N3CCC(N4CCCC(O)C4)CC3)cc2)sc1C(=O)c1ccc2c(c1)OCCO2 (stereo not given)", "pIC50": 5.84}
{"compound": "Nc1nc(Nc2ccc(N3CCC(N4CCCC(O)C4)CC3)cc2)sc1C(=O)c1ccc(Cl)cc1 (stereo not given)", "pIC50": 5.00}
